# Experimental Details: solvent given as SMILES
# Measurement Setup: in C1CCOC1
Below is a list of entries, each paired with its recorded absorption maximum value.
Measured Quantity: absorption maximum (nm)

{"columns": ["Input Smiles", "Quantitative Result"],
 "data": [
  ["Cc1ccc(/C(C#N)=C/c2cc(/C=C(\\C#N)c3ccc(C)cc3)c(-c3ccc(N(c4ccccc4)c4ccccc4)cc3)cc2-c2ccc(N(c3ccccc3)c3ccccc3)cc2)cc1", 391],
  ["COc1ccc(C(=Cc2ccc(/C=C(\\C#N)c3ccccc3)cc2)c2ccc(OC)cc2)cc1", 388],
  ["O=c1c(Nc2ccccc2)c([O-])c1=[NH+]c1ccccc1", 401],
  ["O=c1oc2cccc3c4cccc5ccc6c7ccccc7c1c(c23)c6c54", 409],
  ["Cc1csc2[n+]1[B-](F)(F)OC(c1ccc(N(C)C)cc1)=N2", 405],
  ["CN(C)c1ccc(C2=Nc3scc(-c4ccc([N+](=O)[O-])cc4)[n+]3[B-](F)(F)O2)cc1", 412],
  ["CN1C(=O)c2cccc3c(-n4c5ccccc5c5ccccc54)ccc(c23)C1=O", 408]
]}
